# Test system: EpiDerm tissues
# assay text: EpiDerm bioassay: cytokine, chemokine and growth factor levels by multiplexed immunoassay after croton oil insult
# Type: cell-based, human
# reported conditions: EpiDerm + 0.1% croton oil, 24 hours; percent difference vs croton oil alone
Reported IL-1ra, percentage of the control is given for each of the following molecules.
measure name: IL-1ra, percentage of the control (%)

molecule	measured value
CCOC(=O)CCCCCCCC(=O)OCC [DEA, diethyl azelate]	33
CC1=C(/C=C/C(C)=C/C=C/C(C)=C/C(=O)O)C(C)(C)CCC1 [Retinoic acid, all-trans retinoic acid]	20
O=C(O)c1ccccc1O	15
CCOc1ccc(C=O)cc1	34
O=C(O)CCCCCCCC(=O)O	18
COc1cccc2c1C(=O)c1c(O)c3c(c(O)c1C2=O)C[C@@](O)(C(=O)CO)C[C@@H]3O[C@H]1C[C@H](N)[C@H](O)[C@H](C)O1	15
